B1: PTPN9 (parent)
chain: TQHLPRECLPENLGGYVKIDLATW

- Variants of: B1
- test-summary: protein stability index of a GFP-peptide fusion (GPS, HEK-293T) (PSI 1-6); higher = more stable;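 further: lentivirally expressed fusions sorted by FACS into six bins by GFP to DsRed ratio, PSI derived from sequencing read proportions per bin multiplied by bin number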
- measurement-parameters: c terminus: a fixed tail appended
Measured protein stability index values are reported for all entries that follow.
recorded-endpoint: protein stability index

- TQHLPRECLPENLGGYVKIDEATW [L21E]: 3.27
- TQHLPRECLPENLGGFVKIDLATW [Y16F]: 1.66
- TQHLPRECLPENLGPYVKIDLATW [G15P]: 2.63
